Measured values drawn from patent US20210301025A1 for this set.

test system: human c-Met on cells (NCI-H441, NCI-H292, U87-MG) (human, UniProt P08581 25-1390)
Sequence (P08581 other isoform, or with tags, fused parts or gaps limits assumed): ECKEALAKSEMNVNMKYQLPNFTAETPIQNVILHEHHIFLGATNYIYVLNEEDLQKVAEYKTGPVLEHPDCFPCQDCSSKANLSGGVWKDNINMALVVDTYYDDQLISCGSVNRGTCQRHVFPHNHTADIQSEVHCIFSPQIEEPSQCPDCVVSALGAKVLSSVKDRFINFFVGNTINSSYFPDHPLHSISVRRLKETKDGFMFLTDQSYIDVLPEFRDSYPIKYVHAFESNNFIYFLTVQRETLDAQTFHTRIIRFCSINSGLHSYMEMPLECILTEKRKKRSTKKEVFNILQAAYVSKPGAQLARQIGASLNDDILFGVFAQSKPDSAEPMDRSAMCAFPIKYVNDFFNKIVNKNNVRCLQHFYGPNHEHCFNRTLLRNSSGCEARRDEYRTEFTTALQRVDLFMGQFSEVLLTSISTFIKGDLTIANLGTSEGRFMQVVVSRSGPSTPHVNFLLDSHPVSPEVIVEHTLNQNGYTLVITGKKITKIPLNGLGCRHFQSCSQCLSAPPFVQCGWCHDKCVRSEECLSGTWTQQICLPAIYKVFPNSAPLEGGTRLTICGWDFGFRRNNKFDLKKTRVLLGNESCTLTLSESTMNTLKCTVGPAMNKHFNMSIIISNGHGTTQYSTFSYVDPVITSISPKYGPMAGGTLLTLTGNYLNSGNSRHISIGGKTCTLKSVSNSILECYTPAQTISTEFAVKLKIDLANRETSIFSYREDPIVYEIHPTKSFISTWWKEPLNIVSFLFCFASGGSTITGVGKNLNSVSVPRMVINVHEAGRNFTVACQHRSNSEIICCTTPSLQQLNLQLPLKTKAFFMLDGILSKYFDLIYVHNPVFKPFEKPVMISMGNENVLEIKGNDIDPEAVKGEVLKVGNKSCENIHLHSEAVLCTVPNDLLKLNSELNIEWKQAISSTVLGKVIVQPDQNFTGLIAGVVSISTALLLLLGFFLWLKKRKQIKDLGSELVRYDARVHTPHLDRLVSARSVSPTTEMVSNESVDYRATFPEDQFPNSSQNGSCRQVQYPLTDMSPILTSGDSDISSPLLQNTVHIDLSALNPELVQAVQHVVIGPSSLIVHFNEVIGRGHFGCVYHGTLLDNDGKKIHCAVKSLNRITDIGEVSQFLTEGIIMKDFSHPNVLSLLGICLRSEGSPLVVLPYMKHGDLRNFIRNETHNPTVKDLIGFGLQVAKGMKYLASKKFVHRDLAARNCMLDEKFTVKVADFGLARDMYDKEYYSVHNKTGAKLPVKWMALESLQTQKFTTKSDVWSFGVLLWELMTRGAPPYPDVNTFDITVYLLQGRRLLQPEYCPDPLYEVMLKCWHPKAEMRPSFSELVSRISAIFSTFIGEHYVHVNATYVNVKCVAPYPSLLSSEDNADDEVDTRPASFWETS
assay name: cell-based or functional assay
experimental readout: pMet inhibition in H441 cells IC50 (nM)
# unit: nM | format: bare number

Worked set:
* P114AR7P95-D3 (designed binder, not shown: small tags and cut ends) LPAPKNLVVSRVTEDSARLSWTAPDAAFDSFWIRYFEFLGSGEAIVLTVPGSERSYDLTGLKPGTEYVVNIMGVKGGSISYPLSAIFTT | 4.6
* P114AR7P94-A3 (designed binder, not shown: small tags and cut ends) LPAPKNLVVSRVTEDSARLSWTAPDAAFDSFWIRYFEFLGSGEAIVLTVPGSERSYDLTGLKPGTEYVVNIMGVKGGKISPPLSAIFTT | 5
* P114AR7P95-D4 (designed binder, not shown: small tags and cut ends) LPAPKNLVVSRVTEDSARLSWTAPDAAFDSFWIRYFEFLGSGEAIVLTVPGSERSYDLTGLKPGTEYVVQILGVKGGYISIPLSAIFTT | 19.5
* P114AR7P93-D11 (designed binder, not shown: small tags and cut ends) LPAPKNLVVSRVTEDSARLSWTAPDAAFDSFWIRYFEFLGSGEAIVLTVPGSERSYDLTGLKPGTEYVVGINGVKGGYISYPLSAIFTT | 16

## Input If you can, please state the reported pMet inhibition in H441 cells IC50 value of P114AR7P92-F3 (designed binder, not shown: small tags and cut ends) LPAPKNLVVSRVTEDSARLSWTAPDAAFDSFWIRYFEFLGSGEAIVLTVPGSERSYDLTGLKPGTEYIVNIMGVKGGSISHPLSAIFTT .
## Output 8.3
